Test system: hippocampal neurogenesis (Dentate Gyrus)
EXPERIMENTAL_PROTOCOL: in vivo neurogenesis assay (BrdU+ cells in dentate gyrus)
Design: species or system mice
CONDITION_PARAMETERS: living mice; vehicle (DMSO) 7.3
MEASURED_PARAMETER: Neurogenesis # BrdU+ Cells (X10E06)/mm3 Dentate Gyrus

> print(dat)
                                   compound             result
1  Cc1c(C)n(CC(O)CNc2ccccc2)c2ccc(Br)cc12 (stereo not drawn) [S18]  10.9 (X10E06)/mm3
2  N#Cc1ccc2c(c1)c1cc(C#N)ccc1n2CC(O)COc1ccccc1 (stereo not drawn) [S111]  12.3 (X10E06)/mm3
3  OC(CNC1CCCCC1)Cn1c2ccc(Br)cc2c2cc(Br)ccc21 (stereo not drawn) [S109]   9.4 (X10E06)/mm3
4  CN(C)CCCN1c2ccccc2CCc2ccccc21.Cl [S88, Imipramine, reference compound]   7.8 (X10E06)/mm3
5  O=C(O)c1ccc2c(c1)c1cc(Br)ccc1n2CC(O)COc1ccccc1 (stereo not drawn) [S153]  10.7 (X10E06)/mm3

Could you now look at the following compound, please?
Task: Any idea what Neurogenesis # BrdU+ Cells (X10E06)/mm3 Dentate Gyrus came out for O=C(COc1ccc(NCC(F)Cn2c3ccc(Br)cc3c3cc(Br)ccc32)cc1)NCCO (stereo not drawn) [S71] on hippocampal neurogenesis (Dentate Gyrus)?
Result: 7.2 (X10E06)/mm3

* * *

ASSAY_SYSTEM: Human NAMPT (Homo sapiens)
Construct: made in house; host or cells: E. coli
Sequence (P43490 whole entry): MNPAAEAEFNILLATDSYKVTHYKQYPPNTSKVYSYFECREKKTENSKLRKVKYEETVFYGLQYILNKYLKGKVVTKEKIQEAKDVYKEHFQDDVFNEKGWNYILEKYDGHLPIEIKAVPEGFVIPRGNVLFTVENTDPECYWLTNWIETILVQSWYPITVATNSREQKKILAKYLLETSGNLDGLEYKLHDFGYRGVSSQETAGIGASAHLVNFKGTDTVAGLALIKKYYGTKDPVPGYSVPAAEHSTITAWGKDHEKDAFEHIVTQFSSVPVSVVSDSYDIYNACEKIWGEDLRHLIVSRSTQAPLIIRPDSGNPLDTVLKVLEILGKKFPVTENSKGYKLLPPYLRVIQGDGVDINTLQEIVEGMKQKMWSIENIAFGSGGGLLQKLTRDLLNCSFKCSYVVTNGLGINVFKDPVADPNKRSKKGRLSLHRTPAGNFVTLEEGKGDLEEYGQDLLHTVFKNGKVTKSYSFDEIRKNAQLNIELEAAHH
EXPERIMENTAL_PROTOCOL: in vitro NAMPT coupled-enzyme assay (NADH at OD340 nm)
Type: biochemical
CONDITION_PARAMETERS: relative reaction rate normalized by the control reaction run prior to compound addition; vehicle 0.98
NAMPT activation by entry:
Would you mind answering with just the numeric figure?

> print(dat)
                                   molecule  recorded.number
1  NC(=O)Cn1c2ccc(Br)cc2c2cc(Br)ccc21 [S213]             1.00

Task: Quick check: NAMPT activation of COc1cccc(NC(SC)C(=O)Cn2c3ccc(Br)cc3c3cc(Br)ccc32)c1 (stereo not drawn) [S4] ?
Result: 1.01

Task: What do you get for O=C(Cn1c2ccc(Br)cc2c2cc(Br)ccc21)NS(=O)(=O)c1ccccc1 [S230] ?
Result: 1.02

* * *

ASSAY_SYSTEM: p70 (NAMPT) (Homo sapiens)
Construct: endogenous in cells; host or cells: H2122 lung cancer cells
EXPERIMENTAL_PROTOCOL: binding competition for photo-crosslinking of P7C3-S326 to p70 in H2122 cells
CONDITION_PARAMETERS: 0.3 μM P7C3-S326 plus 5 μM competitor, p70 band intensity, P7C3-S326 alone compared with plus competitor, vehicle 1.0
Procedure: Cultured cells were co-exposed to P7C3-S326 (0.3 uM) and the individual P7C3 variants (5 uM), exposed to UV light, lysed, clicked to a fluorescent dye and run on SDS gels (FIG. 11). […] H2122 cells were incubated with the P7C3-S326 (0.3 μM) in the absence or presence of P7C3 analogs for 2 hours following by UV crosslinking. […] The p70 band intensity was analyzed and quantified by Image J, and the relative intensity in each assay was normalized to that of the DMSO control.
Binding competition by entry:

Reference set, count: 5
> print(dat)
                                   compound  result
1  OC(CNc1ccccc1)Cn1c2ccc(Br)cc2c2cc(Br)ncc21 (stereo not drawn)     3.3
2  OC(COc1ccccc1)Cn1c2c(c3cc(Br)ccc31)CN(C1CC1)CC2 (stereo not drawn)     1.4
3  OC(CNc1ncccn1)Cn1c2ccc(Br)cc2c2cc(Br)ccc21 (stereo not drawn)     4.7
4      CC(C)(O)Cn1c2ccc(Br)cc2c2cc(Br)ccc21     3.0
5  COc1cccc(NCC(F)Cn2c3ccc(Br)cc3c3cc(Br)ccc32)n1 (racemic)     2.2

Task: Quick check: Binding competition of CN1CCc2c(c3cc(Br)ccc3n2CC(O)COc2ccccc2)C1 (stereo not drawn) ?
Result: 3.5

Task: What do you get for O=S(=O)(CC(O)Cn1c2ccc(Br)cc2c2cc(Br)ccc21)c1cccc(O)c1 (stereo not drawn) ?
Result: 1.4

Task: What do you get for COc1cccc(S(=O)(=O)CC(O)Cn2c3ccc(Br)cc3c3cc(Br)ccc32)c1 (stereo not drawn) ?
Result: 2.3

* * *

ASSAY_SYSTEM: p70 (NAMPT) (Homo sapiens)
Construct: endogenous in cells; host or cells: H2122 lung cancer cells
EXPERIMENTAL_PROTOCOL: binding competition for photo-crosslinking of P7C3-S326 to p70 in H2122 cells
CONDITION_PARAMETERS: 0.3 μM P7C3-S326 plus 5 μM competitor, p70 band intensity, P7C3-S326 alone compared with plus competitor, vehicle 1.0
MEASURED_PARAMETER: Binding competition

Reference set, count: 3
> print(dat)
                                   compound  result
1  OC(Cn1c2ccc(Br)cc2c2cc(Br)ccc21)Cn1c2ccc(Br)cc2c2cc(Br)ccc21     1.0
2  O=S(=O)(C[C@@H](O)Cn1c2ccc(Br)cc2c2cc(Br)ccc21)c1ccccc1     3.8
3  OC(CNc1ccccc1)CN(c1ccc(Br)cc1)c1ccc(Br)cc1 (stereo not shown)     1.4

Task: Quick check: Binding competition of `O=C(O)CN1c2ccccc2CCc2ccccc21` ?
Result: 1.1

The measurements presented in this section are drawn from patent US9243281B2.
